Cmax values for the molecules below.
Tested on: Rattus norvegicus
EXPERIMENT NOTES: The compound was tested for maximum blood level reached in rats at 15.9 uM/Kg after peroral administration.
Assay type: ADME, organism-based
Parameters: dose 15.9 uM/Kg, route oral
CONDITION DESCRIPTION: in vivo, po, 15.9 µmol/kg

{"SMILES CODE": "CS(=O)(=O)c1ccc(-c2[nH]c(C#N)cc2-c2ccc(F)cc2)cc1", "SYSTEM NAME": "Rattus norvegicus", "UNITS LABEL": "uM l-1", "Cmax": 2.9}
{"SMILES CODE": "CS(=O)(=O)c1ccc(-c2[nH]c(Cl)cc2-c2ccc(F)cc2)cc1", "SYSTEM NAME": "Rattus norvegicus", "UNITS LABEL": "uM l-1", "Cmax": 2.3}
{"SMILES CODE": "Cn1c(Br)cc(-c2ccc(F)cc2)c1-c1ccc(S(C)(=O)=O)cc1", "SYSTEM NAME": "Rattus norvegicus", "UNITS LABEL": "uM l-1", "Cmax": 1.5}
{"SMILES CODE": "CS(=O)(=O)c1ccc(-c2[nH]c(Br)cc2-c2ccc(F)cc2)cc1", "SYSTEM NAME": "Rattus norvegicus", "UNITS LABEL": "uM l-1", "Cmax": 3}

* * *

SYSTEM NAME: Prostaglandin G/H synthase 1 (Ovis aries, UniProt P05979)
Sequence (P05979 whole entry): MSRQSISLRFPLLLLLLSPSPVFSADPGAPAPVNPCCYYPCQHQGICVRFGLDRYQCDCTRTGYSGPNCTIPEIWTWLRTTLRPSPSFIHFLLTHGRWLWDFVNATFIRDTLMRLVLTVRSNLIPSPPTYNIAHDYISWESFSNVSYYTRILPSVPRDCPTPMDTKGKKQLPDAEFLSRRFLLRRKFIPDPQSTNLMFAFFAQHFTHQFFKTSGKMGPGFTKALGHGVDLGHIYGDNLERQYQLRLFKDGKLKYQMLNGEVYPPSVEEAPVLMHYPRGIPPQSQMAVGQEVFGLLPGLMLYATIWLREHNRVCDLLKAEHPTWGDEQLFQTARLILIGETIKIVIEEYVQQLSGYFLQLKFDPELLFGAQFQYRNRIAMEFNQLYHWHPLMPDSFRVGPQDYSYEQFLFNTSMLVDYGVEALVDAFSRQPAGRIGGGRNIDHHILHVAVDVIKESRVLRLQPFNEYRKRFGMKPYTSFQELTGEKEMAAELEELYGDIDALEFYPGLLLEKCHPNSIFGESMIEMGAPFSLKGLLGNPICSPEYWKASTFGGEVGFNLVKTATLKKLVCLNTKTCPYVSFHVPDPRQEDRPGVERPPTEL
pIC50: −log10 of the molar value.
pIC50 values for the molecules below.

{"SMILES CODE": "Cn1ccc(-c2ccc(F)cc2)c1-c1ccc(S(C)(=O)=O)cc1", "SYSTEM NAME": "Prostaglandin G/H synthase 1 (Ovis aries, UniProt P05979)", "OP": "<", "pIC50": 3.52}
{"SMILES CODE": "CS(=O)(=O)c1ccc(-c2[nH]c(I)cc2-c2ccc(F)cc2)cc1", "SYSTEM NAME": "Prostaglandin G/H synthase 1 (Ovis aries, UniProt P05979)", "OP": "<", "pIC50": 3.52}
{"SMILES CODE": "CS(=O)(=O)c1ccc(-c2[nH]c(S(C)(=O)=O)cc2-c2ccc(F)cc2)cc1", "SYSTEM NAME": "Prostaglandin G/H synthase 1 (Ovis aries, UniProt P05979)", "OP": "<", "pIC50": 3.52}
{"SMILES CODE": "CS(=O)(=O)c1ccc(-c2[nH]c(Br)cc2-c2ccc(F)cc2)cc1", "SYSTEM NAME": "Prostaglandin G/H synthase 1 (Ovis aries, UniProt P05979)", "OP": "=", "pIC50": 3.88}
{"SMILES CODE": "CS(=O)(=O)c1ccc(-c2[nH]c(SC#N)cc2-c2ccc(F)cc2)cc1", "SYSTEM NAME": "Prostaglandin G/H synthase 1 (Ovis aries, UniProt P05979)", "OP": "=", "pIC50": 3.66}
{"SMILES CODE": "CS(=O)(=O)c1ccc(-c2[nH]c(Cl)c(Cl)c2-c2ccc(F)cc2)cc1", "SYSTEM NAME": "Prostaglandin G/H synthase 1 (Ovis aries, UniProt P05979)", "OP": "=", "pIC50": 4.70}

* * *

Cmax values for the molecules below.
Test system: Rattus norvegicus
EXPERIMENT NOTES: The compound was tested for maximum blood level reached in rats at 15.9 uM/Kg after intravenous administration.
Type: ADME, organism-based
Set-up: dose 15.9 uM/Kg, route intravenous
CONDITION DESCRIPTION: in vivo, 15.9 µmol/kg

{"SMILES CODE": "CS(=O)(=O)c1ccc(-c2[nH]c(C#N)cc2-c2ccc(F)cc2)cc1", "Cmax (uM l-1)": 4.1}
{"SMILES CODE": "CS(=O)(=O)c1ccc(-c2[nH]c(Br)cc2-c2ccc(F)cc2)cc1", "Cmax (uM l-1)": 2}
{"SMILES CODE": "CS(=O)(=O)c1ccc(-c2[nH]c(Cl)cc2-c2ccc(F)cc2)cc1", "Cmax (uM l-1)": 1.4}
{"SMILES CODE": "Cn1c(Br)cc(-c2ccc(F)cc2)c1-c1ccc(S(C)(=O)=O)cc1", "Cmax (uM l-1)": 2.9}
